tested on: MS2 coat protein; assay: apparent Kd, MS2 coat protein; higher = weaker binding; RNA-MaP array; settings: ligand present: flavin mononucleotide; designed as: ON switch for flavin mononucleotide
measured_parameter: apparent Kd (nM)
Value expressed in nM; do not type the unit.

These solved cases illustrate the format of a correct answer.
QUERY: Look up apparent Kd: AUACAACAUGAGGAUCACCCAUGUGCUUAAGUUAAAGGAUAUCUAGUGGAUUACAUGCGUAGAGAAGGUUAUUUUA
RESULT: 8.55

QUERY: Could you do the same for UUGAUCGCUCAGAAGGACGCGCAGGACCAAGCCGUAGGAUAUGACGAAUGCUAACGGAGUCCACAUGAGGAUCACCCAUGUGCA , please?
RESULT: 18.9

QUERY: Could you do the same for GGUCUGCCAUUUCAGGAUAUGCUCAGUGCAACAUGAGGAUCACCCAUGUCAGGCUCGAACGACUCGCAGAAGGGAAGUCACGGAUG , please?
RESULT: 61.4

QUERY: Could you do the same for AUGGUGUCUUAAGGAUAUGCUCGACAUGAGGAUCACCCAUGUGCCUCGUUUUCCCAACCGAGGUCGCAGAAGGUAAGUGACGUG , please?
RESULT: 37

QUERY: Could you do the same for GAAUACGUCAUGAUGAACAUGAGGAUCACCCAUGUAGUGCCUUAGGAUAUGCUACGAUUACUGCCGCAGAAGGAAGUGCAAGAA , please?
RESULT: 28.4

---
QUERY: Look up apparent Kd: UGGACUGUGACAUGAGGAUCACCCAUGUAAAUAAUUCCGCAUAGAAGGGUCCAACGUAAAUGAAGACAGGAUAUAUGGGAGCGU
RESULT: 24

QUERY: Could you do the same for CACCAAUUUCGAGGAUAUACGGCCGGUUAACAUUCGUCUUACAUGAGGAUCACCCAUGUGUUCGCGUAGAAGGCGAUUCUUAAU , please?
RESULT: 31.2

QUERY: Could you do the same for AAAAGAAGCUGAGGAUAUUGGUUAACAUGAGGAUCACCCAUGUCGUUGGUGGAAAACACCUGACGCAAGAAGGCAGACACUUAU , please?
RESULT: 7.81

QUERY: Could you do the same for AACGACAUGAGGAUCACCCAUGUAUACGACCGAAGUGUACGGUAGGAUAUCGACAGCAUAGAUAACGAGAAGGACCCUUUUGGA , please?
RESULT: 11.8

QUERY: Could you do the same for AGUAACGGAACAUGAGGAUCACCCAUGUCAAAAGAUAAGACAAAGGAUAUCAGAUAAAGACCAAAUGAGAAGGUUGGAAGACAA , please?
RESULT: 31.4

QUERY: Could you do the same for CAAGCGCAUAAGUACGCAACUACAUGAGGAUCACCCAUGUGAAGAAGGGCACAUCUAUCCCACGUGCAGGAUAUUCUCCAAUUU , please?
RESULT: 51

QUERY: Could you do the same for GGAUUAAGCUAGAAGGUACGAUCACCGUGAUGGUAAGGAUAUAGAACGAUGCCGAUUCCAACAUGAGGAUCACCCAUGUUCCUA , please?
RESULT: 260

QUERY: Could you do the same for UAUUUUGCGAAGAAGGAAGCCUCACUGGAAUGCUUAGGAUAUUCUCGCGUGGAGCACAUGCACAUGAGGAUCACCCAUGUACCG , please?
RESULT: 20.1

QUERY: Could you do the same for AAUUUUAUGAAAGGAUAUGUGUGCUGGUCCAUCACAGAAGGUUCAAGGAGAUGGAUAUAACGACAUGAGGAUCACCCAUGUGCU , please?
RESULT: 22.1

QUERY: Could you do the same for UUACGGCCGGAAGGAUAUUGUGGCUCCGGAGUAACAUGAGGAUCACCCAUGUGAAUCAAACACAACAAGAAGGUCCCAAAUAGG , please?
RESULT: 15.5

QUERY: Could you do the same for CAUAGAGCUAAGAAGGCGUACGGAGACAGCAUACGAGGAUAUUAACGUCCAUGAACAUGAGGAUCACCCAUGUCGAAAACCAAA , please?
RESULT: 8.15
